Measured values drawn from ChEMBL document CHEMBL1133074 for this set.

# assay.text: Relative concentration required to cause 50% degradation of the poly (U) 3'[32P]p5'C3'p
In this section, each of the molecules is paired with its reported Crel.
measurement.name: Crel

* Cc1nc(N)c2ncn([C@@H]3O[C@H](COP(=O)(O)O[C@@H]4[C@H](O)[C@@H](COP(=O)(O)O[C@@H]5[C@H](O)[C@@H](COP(=O)(O)OP(=O)(O)OP(=O)(O)O)O[C@H]5n5cnc6c(N)nc(C)nc65)O[C@H]4n4cnc5c(N)nc(C)nc54)[C@@H](O)[C@H]3O)c2n1 | 31
* Cc1nc(N)c2ncn([C@@H]3O[C@H](COP(=O)(O)O[C@@H]4[C@H](O)[C@@H](COP(=O)(O)O[C@@H]5[C@H](O)[C@@H](COP(=O)(O)OP(=O)(O)OP(=O)(O)O)O[C@H]5n5cnc6c(N)ncnc65)O[C@H]4n4cnc5c(N)ncnc54)[C@@H](O)[C@H]3O)c2n1 | 2
* Nc1ncnc2c1ncn2[C@@H]1O[C@H](COP(=O)(O)O[C@@H]2[C@H](O)[C@@H](COP(=O)(O)O[C@@H]3[C@H](O)[C@@H](COP(=O)(O)O)O[C@H]3n3cnc4c(N)ncnc43)O[C@H]2n2cnc3c(N)ncnc32)[C@@H](O)[C@H]1O | 1
* Cc1nc(N)c2ncn([C@@H]3O[C@H](COP(=O)(O)O)[C@@H](O)[C@H]3OP(=O)(O)OC[C@H]3O[C@@H](n4cnc5c(N)ncnc54)[C@H](OP(=O)(O)OC[C@H]4O[C@@H](n5cnc6c(N)ncnc65)[C@H](O)[C@@H]4O)[C@@H]3O)c2n1 | 6
